- Assayed System: ALR-2 (human aldose reductase, EC 1.1.1.21) (Homo sapiens)
- Construct: gene AKR1B1; one molecule per asymmetric unit
- Assay Remarks: ITC direct titration; X-ray
- Type: binding
pKd: −log10 of the molar value.
Measure Name: pKd

(1) C[S+]([O-])c1cccc(CNC(=O)c2ccc(F)cc2OCC(=O)O)c1 (centres unmarked) [compound 3]
(2) O=C(O)COc1cc(F)ccc1C(=O)NCc1cccc(B(O)O)c1 [compound 4]
query: Among 1 and 2 , which shows a numerically higher pKd result? API: response body contains the label of the selected item.
result: 2
(2: 5.64, 1: 5.30)

---

- Assayed System: ALR-2 (human aldose reductase, EC 1.1.1.21) (Homo sapiens, UniProt P15121)
- Construct: gene AKR1B1; one molecule per asymmetric unit
- Assay Remarks: ITC direct titration
- Assay type: binding
Measure Name: pKd
pKd field: float, defined as -log10 of concentration (mol/L).

query: What value of pKd on ALR-2 (human aldose reductase, EC 1.1.1.21) (Homo sapiens, UniProt P15121) does `O=C(O)COc1cc(F)ccc1C(=O)NCc1nc2ccccc2s1` have?
result: 6.38
